Reported MIC values are given for each entry in this list.
- Tested on: Escherichia coli
- assay-protocol: Antibacterial activity against Escherichia coli SQ110 DTC G2032A incubated for 24 hrs by twofold serial dilution method
- Assay type: functional
// units = µM; emit number, no label

C[n+]1ccc(-c2ccc(-c3ccc(N4C[C@H](CO)OC4=O)cc3F)cc2)cc1; 25
O=C(O)c1ccc(-c2ccc(N3C[C@H](CO)OC3=O)cc2F)cc1; 50
O=C1O[C@@H](CO)CN1c1ccc(-c2cccnc2)c(F)c1; 50

Query block: Report MIC from Escherichia coli testing of O=C1O[C@@H](CO)CN1c1ccc(-c2ccncc2)c(F)c1
Result block: 25

Query block: Jot down MIC (Escherichia coli) of O=C1O[C@@H](CO)CN1c1ccc(-c2ccc(CO)cc2)c(F)c1 .
Result block: 50

Query block: State, for Escherichia coli, measured MIC of the compound listed here: NCc1ccc(-c2ccc(N3C[C@H](CO)OC3=O)cc2F)cc1O
Result block: 100

Query block: Report measured MIC on Escherichia coli; entry: C[n+]1cccc(-c2ccc(-c3ccc(N4C[C@H](CO)OC4=O)cc3F)cc2)c1
Result block: 50

Query block: Look up Escherichia coli data: MIC of Nc1ncc(-c2ccc(N3C[C@H](CO)OC3=O)cc2F)cn1 , then report it.
Result block: 100

Query block: Look up and report measured MIC (Escherichia coli) for the following compound: NCc1ccc(-c2ccc(N3C[C@H](CO)OC3=O)cc2F)cc1
Result block: 100

* * *

Here, each record is paired with measured MIC data.
- Tested on: Staphylococcus aureus
- assay-protocol: Antibacterial activity against Staphylococcus aureus ATCC 25923 incubated for 24 hrs by twofold serial dilution method
- Format: functional
Write it as a number; the unit µM goes unstated.

Example entries and their recorded answers appear below.
O=C1O[C@@H](CO)CN1c1ccc(-c2cccnc2)c(F)c1; 1.56
O=C1O[C@@H](CO)CN1c1ccc(-c2ccc(OC(F)(F)F)cc2)c(F)c1; 6.25
NCc1ccc(-c2ccc(N3C[C@H](CO)OC3=O)cc2F)cc1; 6.25
CC(=O)NC[C@H]1CN(c2ccc(N3CCOCC3)c(F)c2)C(=O)O1; 6.25
Nc1ncc(-c2ccc(N3C[C@H](CO)OC3=O)cc2F)cn1; 6.25
C[n+]1ccc(-c2ccc(-c3ccc(N4C[C@H](CO)OC4=O)cc3F)cc2)cc1; 12.5
O=C1O[C@@H](CO)CN1c1ccc(-c2ccc(C(F)(F)F)cc2)c(F)c1; 3.12
O=C1O[C@@H](CO)CN1c1ccc(-c2ccncc2)c(F)c1; 1.56
O=C1O[C@@H](CO)CN1c1ccc(-c2ccc(CO)cc2)c(F)c1; 1.56
O=C(O)c1ccc(-c2ccc(N3C[C@H](CO)OC3=O)cc2F)cc1; 6.25

Could you now look at the following molecule, please?
Query block: Name the recorded MIC of the molecule listed here: C[n+]1cccc(-c2ccc(-c3ccc(N4C[C@H](CO)OC4=O)cc3F)cc2)c1
Result block: 12.5

* * *

- System: Acinetobacter baumannii
- assay-protocol: Antibacterial activity against efflux pump lacking/recombinant OM pore producing Acinetobacter baumannii assessed as inhibition of bacterial growth
- Type: functional, organism-based
measure-name: IC50 (µM)
Provide the reading as a plain figure in µM.

NCc1ccc(-c2ccc(N3C[C@H](CO)OC3=O)cc2F)cc1; 8.2
CC(C)c1ccc(-c2ccc(N3C[C@H](CO)OC3=O)cc2F)c(C(C)C)c1; 8.2
O=C1O[C@@H](CO)CN1c1ccc(-c2ccc(CO)cc2)c(F)c1; 4.6
O=C1O[C@@H](CO)CN1c1ccc(-c2ccc(-c3ccccn3)cc2)c(F)c1; 21.5
O=C1O[C@@H](CO)CN1c1ccc(-c2ccc(F)cc2)c(F)c1; 9.7
COc1ccc(CNC(=O)OC(C)(C)C)cc1OCC#Cc1ccc(N2C[C@H](CO)OC2=O)cc1F; 28.7

Query block: Report measured IC50; entry is O=C1O[C@@H](CO)CN1c1ccc(-c2cnoc2)c(F)c1
Result block: 83.4

Query block: Give recorded IC50. O=C1O[C@@H](CO)CN1c1ccc(-c2ccc3c(c2)OCO3)c(F)c1
Result block: 1.5

Query block: Fill in reported IC50 for this entry: O=C1O[C@@H](CO)CN1c1ccc(-c2cc[n+](Cc3ccccc3)cc2)c(F)c1
Result block: 13

Query block: Provide measured IC50 value, entry: COC(=O)Cn1cc(C#Cc2ccc(N3C[C@H](CO)OC3=O)cc2F)cn1
Result block: 62

Query block: Give IC50 for the following compound: O=C1O[C@@H](CO)CN1c1ccc(-c2ccc3cnccc3c2)c(F)c1
Result block: 5.6

Query block: Recall and state the measured IC50 for O=C1O[C@@H](CO)CN1c1ccc(-c2ccc(C(F)(F)F)cc2)c(F)c1 .
Result block: 3.9

Query block: Write down IC50 measured for item O=C1O[C@@H](CO)CN1c1ccc(-c2cccc3cc[nH]c23)c(F)c1
Result block: 62.1

Query block: Quote IC50 reported for C[n+]1ccccc1-c1ccc(-c2ccc(N3C[C@H](CO)OC3=O)cc2F)cc1 please.
Result block: 10.2

Query block: State its IC50 for this compound: C[n+]1ccccc1-c1ccc(N2C[C@H](CO)OC2=O)cc1F
Result block: 33.3

Query block: Please give measured IC50 of the following entry: O=C1O[C@@H](CO)CN1c1ccc(-c2ccc(O)cc2)c(F)c1
Result block: 7.3

Query block: Please report IC50 for the following compound: CCOC(=O)C(C)(C)CC#Cc1ccc(N2C[C@H](CO)OC2=O)cc1F
Result block: 30.3

Query block: Return IC50 for the following compound: O=C(O)c1ccc(-c2ccc(N3C[C@H](CO)OC3=O)cc2F)cc1
Result block: 10.2

Query block: Respond only with IC50 recorded for CC(=O)NC[C@H]1CN(c2ccc(N3CCOCC3)c(F)c2)C(=O)O1
Result block: 4

Query block: Let me know recorded IC50 for O=C1O[C@@H](CO)CN1c1ccc(-c2ccncc2)c(F)c1 , thanks.
Result block: 1.4

Query block: Using known records, supply IC50 for COc1ccc(-c2ccc(N3C[C@H](CO)OC3=O)cc2F)cc1
Result block: 0.6

Query block: Let me know recorded IC50 for Nc1cccc(C#Cc2ccc(N3C[C@H](CO)OC3=O)cc2F)n1 , thanks.
Result block: 76.7

Query block: Write down IC50 measured for item Cn1ncc(C#Cc2ccc(N3C[C@H](CO)OC3=O)cc2F)c1C(=O)O
Result block: 89.5
